Protocol details: chemical genetic growth profiling, strain panel (AID 1159580);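 note: tested at 20 µM; growth read once vehicle control cultures reached saturation at 30 °C; lower values mean less growth of the strain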
Condition notes: S. cerevisiae deletion strains, growth OD, locus YMR205C, strain PFK2 (second series), hits give low values
Hit rate of the full screen: of about 5,500 compounds, about 2,000 (36%) were called active. Not shown: some 18% with an inconclusive outcome. This is one part of the list.
// boundary case: normalized growth equal to 0.9 maps to Not fulfilled; strictly smaller maps to Fulfilled

Q: normalized growth strictly < 0.9 for this molecule? "FC(F)(F)c1ccc(N2CCc3ccccc3C2)c(NC(=S)Nc2cc(Cl)cc(Cl)c2)c1"
Result: Not fulfilled

Q: normalized growth strictly < 0.9 for this molecule? "O=C1Nc2ccccc2/C1=C\c1ccc(Cl)cc1"
Result: Fulfilled

Q: normalized growth strictly < 0.9 for this molecule? "FC(F)(F)c1cccc(NC(=S)NN=C2CCCCCC2)c1"
Result: Not fulfilled

Q: normalized growth strictly < 0.9 for this molecule? "CC(C)(C)NC(=S)N/N=C\c1ccccc1O"
Result: Not fulfilled

Q: normalized growth strictly < 0.9 for this molecule? "O=[N+]([O-])c1cc(Cl)cc([N+](=O)[O-])c1Nc1ccccc1"
Result: Not fulfilled

meta.source: PubChem BioAssay AID1159580
